Test system: pancreatic cancer cells (MiaPaCa-2)
Assay: MTT cell viability assay, MiaPaCa-2
Type: cell-based, human
Conditions: Homo sapiens, MIA PaCa-2; MiaPaCa-2, 72 hrs
endpoint label: pIC50
pIC50 is a log-scale quantity: -log10 of the concentration expressed in molar.

COc1ccc(NC2=CC(=O)C(Nc3ccc(OC)cc3)=CC2=O)cc1 = 5.11

Lab note: next molecule to report on.
Query: Item O=C1C=C(NCc2ccc(F)cc2)C(=O)C=C1NCc1ccc(F)cc1 with pancreatic cancer cells (MiaPaCa-2) - pIC50?
Result: 5.21

====

Here the recorded melting point is given for each entry.

Take a look at these entries with their results.
COc1ccc(NC2=CC(=O)C(Nc3ccc(OC)cc3)=CC2=O)cc1 = 323 to 325 °C
O=C1C=C(NCc2ccc(C(F)(F)F)cc2)C(=O)C=C1NCc1ccc(C(F)(F)F)cc1 = 271 to 274 °C

Query: Looking for the measured melting point of O=C1C=C(NC2CCCC2)C(=O)C=C1NC1CCCC1 , can you help?
Result: 289 to 291 °C

Query: Looking for the measured melting point of O=C1C=C(Nc2ccccc2)C(=O)C=C1Nc1ccccc1 , can you help?
Result: 342 to 345 °C

Provenance of the data: patent US20200010413A1
